Would you mind telling me the reported KD ratio to GLS3000 of each entry?
TARGET_UNDER_TEST: T1, CD3 epsilon homodimer protein (UniProt P07766 23-126)
T1 construct: also called CD3 (CD3 epsilon)
TEST_PROTOCOL: SPR, antibody over immobilised CD3e homodimer;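 note: SPR at 25 °C with CD3 epsilon homodimer amine-coupled to a CM4 sensor chip and antibody flowed over as analyte in HBS-EP+ running buffer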
Just the number, please, no unit after it.

Query: Return KD ratio to GLS3000 for the following binder: CE115HA000/GLS3000 N30L (antibody, IgG1, name in Kabat numbering, V domains shown, one-arm IgG1) VH: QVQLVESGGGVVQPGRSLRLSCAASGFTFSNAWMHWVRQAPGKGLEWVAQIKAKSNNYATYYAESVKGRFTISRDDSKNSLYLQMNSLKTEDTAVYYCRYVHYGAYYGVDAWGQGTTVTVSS VL: DIVMTQSPLSLPVTPGEPASISCRSSQSLVHSNRLTYLHWYQQKPGQAPRLLIYKVSNRFSGVPDRFSGSGSGTDFTLKISRVEAEDVGVYYCGQGTQVPYTFGQGTKLEIK
Reply: 1.19

Query: Answer with the recorded KD ratio to GLS3000 of CE115HA000/GLS3000 R29L (antibody, IgG1, name in Kabat numbering, V domains shown, one-arm IgG1) VH: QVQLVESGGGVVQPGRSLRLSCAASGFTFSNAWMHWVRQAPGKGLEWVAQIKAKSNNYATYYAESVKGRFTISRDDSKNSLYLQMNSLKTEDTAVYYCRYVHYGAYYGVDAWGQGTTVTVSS VL: DIVMTQSPLSLPVTPGEPASISCRSSQSLVHSNLNTYLHWYQQKPGQAPRLLIYKVSNRFSGVPDRFSGSGSGTDFTLKISRVEAEDVGVYYCGQGTQVPYTFGQGTKLEIK only.
Reply: 0.9

Query: Quick one: give measured KD ratio to GLS3000 for CE115HA000/GLS3000 G89F (antibody, IgG1, name in Kabat numbering, V domains shown, one-arm IgG1) VH: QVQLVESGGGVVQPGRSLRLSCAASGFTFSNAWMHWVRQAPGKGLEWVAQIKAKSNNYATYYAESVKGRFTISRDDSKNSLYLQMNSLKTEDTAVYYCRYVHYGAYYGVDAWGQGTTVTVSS VL: DIVMTQSPLSLPVTPGEPASISCRSSQSLVHSNRNTYLHWYQQKPGQAPRLLIYKVSNRFSGVPDRFSGSGSGTDFTLKISRVEAEDVGVYYCFQGTQVPYTFGQGTKLEIK
Reply: 3.34
